Hey, just so you know, these numbers are from the supplement of paper PMC10567573.

B1: CCND1 (parent)
chain: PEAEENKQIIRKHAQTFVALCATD

- Variants of: B1
- Experimental Details: protein stability index of a GFP-peptide fusion (GPS, HEK-293T) (PSI 1-6); higher = more stable;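 note: lentivirally expressed fusions sorted by FACS into six bins by GFP to DsRed ratio, PSI derived from sequencing read proportions per bin multiplied by bin number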
- Study Conditions: c terminus: a fixed tail appended
Listed next: entries and their corresponding protein stability index.
Quantity Measured: protein stability index

- Residue Change: "P1W"
  Measured Result: 3.02
- Residue Change: "I9E"
  Measured Result: 3.89
- Residue Change: "E4H"
  Measured Result: 2.67
- Residue Change: "C21Y"
  Measured Result: 2.96
- Residue Change: "K7F"
  Measured Result: 2.71
- Residue Change: "K7W"
  Measured Result: 2.61
- Residue Change: "I10Q"
  Measured Result: 2.81
- Residue Change: "V18E"
  Measured Result: 5.09
- Residue Change: "E2N"
  Measured Result: 2.32
- Residue Change: "H13G"
  Measured Result: 3.84
- Residue Change: "K12C"
  Measured Result: 2.76
